Biological target: urease in intact H. pylori J99 (Helicobacter pylori)
Construct: In the intact H. pylori J99 cells, the urease susceptibility profile was similar to that of E. coli (pGEM::ureOP); endogenous in cells
Sequence (Q9ZMZ4 whole entry): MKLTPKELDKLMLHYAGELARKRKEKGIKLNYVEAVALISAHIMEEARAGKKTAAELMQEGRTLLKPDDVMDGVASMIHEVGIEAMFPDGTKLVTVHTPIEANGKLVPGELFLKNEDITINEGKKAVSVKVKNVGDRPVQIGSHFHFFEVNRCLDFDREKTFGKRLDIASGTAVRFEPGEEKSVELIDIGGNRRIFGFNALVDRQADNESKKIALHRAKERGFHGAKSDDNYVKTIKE
Sequence (P69997 whole entry): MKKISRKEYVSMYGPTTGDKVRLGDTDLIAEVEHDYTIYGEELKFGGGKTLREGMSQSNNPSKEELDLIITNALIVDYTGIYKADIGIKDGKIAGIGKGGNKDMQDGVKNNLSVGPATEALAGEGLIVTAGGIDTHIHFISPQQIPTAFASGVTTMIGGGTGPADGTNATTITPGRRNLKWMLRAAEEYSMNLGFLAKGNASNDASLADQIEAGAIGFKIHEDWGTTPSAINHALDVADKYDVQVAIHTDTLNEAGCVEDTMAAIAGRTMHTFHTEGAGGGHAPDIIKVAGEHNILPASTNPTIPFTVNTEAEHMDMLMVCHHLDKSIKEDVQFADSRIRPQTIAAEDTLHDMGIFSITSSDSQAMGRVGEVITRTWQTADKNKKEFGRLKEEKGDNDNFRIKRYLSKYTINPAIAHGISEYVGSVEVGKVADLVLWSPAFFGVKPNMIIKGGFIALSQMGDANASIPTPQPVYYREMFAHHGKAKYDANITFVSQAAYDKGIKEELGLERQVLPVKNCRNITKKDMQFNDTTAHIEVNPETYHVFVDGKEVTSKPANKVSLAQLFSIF
Experiment: Urease inhibition in whole cells of H. pylori J99
Format: cell-based
Conditions: cells grown with urea; 2 h of preincubation with inhibitors in growth medium under microaerobic conditions; read-out: IC502h medium
Here the recorded IC50 is given for each entry.
resultType: IC50 (µM)

compound: CN(C)CP(C)(=O)O [Compound 3]
unitOfMeasurement: µM
boundOperator: =
endpointValue: 304
--
compound: O=P(O)(CNCc1ccccc1)CNCc1ccccc1 [Compound 23]
unitOfMeasurement: µM
boundOperator: >
endpointValue: 2000
--
compound: CNCP(=O)(O)O [Compound 1, N-methylaminomethylphosphonic acid]
unitOfMeasurement: µM
boundOperator: =
endpointValue: 202
--
compound: CNCP(C)(=O)O [Compound 2]
unitOfMeasurement: µM
boundOperator: =
endpointValue: 274
--
compound: CCCNCP(=O)(O)CN [Compound 9]
unitOfMeasurement: µM
boundOperator: =
endpointValue: 553
--
compound: CN(C)CP(=O)(O)CN(C)C [Compound 22]
unitOfMeasurement: µM
boundOperator: >
endpointValue: 2000
--
compound: NCP(=O)(O)CNC1CCCCC1 [Compound 17]
unitOfMeasurement: µM
boundOperator: >
endpointValue: 2000
--
compound: CNCP(=O)(O)CO [Compound 4]
unitOfMeasurement: µM
boundOperator: =
endpointValue: 207
--
compound: NCP(=O)(O)CN [Compound 6, Bis(aminomethyl)phosphinic acid]
unitOfMeasurement: µM
boundOperator: >
endpointValue: 2000
--
compound: CCCCNCP(=O)(O)CN [Compound 11]
unitOfMeasurement: µM
boundOperator: =
endpointValue: 470
--
compound: CN(Cc1ccccc1)CP(=O)(O)CN [Compound 19]
unitOfMeasurement: µM
boundOperator: >
endpointValue: 2000
--
compound: CCCCCCNCP(=O)(O)CN [Compound 13]
unitOfMeasurement: µM
boundOperator: =
endpointValue: 205

---

Reported inhibition at 500 µM values are given for each entry in this list.
System: human mammary gland MCF-10A
Experiment: Sulforhodamine B antiproliferative assay, MCF-10A
Assay type: cell-based
Settings: compound 0.5 mM, 72 h, read-out: % Proliferation inhibition ± SD

chemSmiles: CNCP(=O)(O)CNC
tgt: human mammary gland MCF-10A
inhibition at 500 µM (%): 0
--
chemSmiles: CCCNCP(=O)(O)CN
tgt: human mammary gland MCF-10A
inhibition at 500 µM (%): 0
--
chemSmiles: CCCCCCCCNCP(=O)(O)CN
tgt: human mammary gland MCF-10A
inhibition at 500 µM (%): 1.8
--
chemSmiles: CCCCCCNCP(=O)(O)CN
tgt: human mammary gland MCF-10A
inhibition at 500 µM (%): 0.5
--
chemSmiles: CNCP(=O)(O)CO
tgt: human mammary gland MCF-10A
inhibition at 500 µM (%): 0
--
chemSmiles: CNCP(=O)(O)O
tgt: human mammary gland MCF-10A
inhibition at 500 µM (%): 0
--
chemSmiles: CNCP(C)(=O)O
tgt: human mammary gland MCF-10A
inhibition at 500 µM (%): 0
--
chemSmiles: CNCP(=O)(O)CN
tgt: human mammary gland MCF-10A
inhibition at 500 µM (%): 0
--
chemSmiles: NCP(=O)(O)CN
tgt: human mammary gland MCF-10A
inhibition at 500 µM (%): 0
